Experiment: In vitro membrane potential on murine beta-TC3 cells
Assay type: functional
Settings: Mus musculus
Recorded IC50 values for a group of compounds are listed next.
API: value field is a number in µM; no unit string.

compound: CCC/N=C(\NC#N)Nc1cc(C(F)(F)F)cc(C(F)(F)F)c1
endpoint.label: IC50
endpoint.value: 0.9
--
compound: CCC/N=C(\NC#N)Nc1cc(Cl)cc(Cl)c1
endpoint.label: IC50
endpoint.value: 36
--
compound: CC(/N=C(\NC#N)Nc1cc(Cl)cc(Cl)c1)C(C)(C)C (stereo not drawn)
endpoint.label: IC50
endpoint.value: 19
--
compound: CC1=Nc2ccc(Cl)cc2S(=O)(=O)N1 [DIAZOXIDE]
endpoint.label: IC50
endpoint.value: 77.4

stdin: I have this compound here, CC(C)CC/N=C(\NC#N)Nc1cc(C(F)(F)F)cc(C(F)(F)F)c1 , and I need its recorded IC50.
stdout: 0.5

stdin: Which IC50 value is on record for COc1cc(N/C(=N/CCC(C)C)NC#N)cc(C(F)(F)F)c1 ?
stdout: 13

stdin: Given the compound CC(C)CC/N=C(\NC#N)Nc1cc(Cl)cc(Cl)c1 , what is its reported IC50?
stdout: 4
